All values here come from patent US7893266B2.

system: EMT-6 mammary tumors; assay: Biodistribution in EMT-6 BALB/C mice; format: in vivo; details: fat, 30 min
Everything with % ID per gram fat lower than 1 % ID per gram is Condition not met; everything else, including exactly 1 % ID per gram, is Condition met.

Example results:
1. COc1cc2c(cc1OC)CN(CCCCNC(=O)c1cc(Br)cc(OC)c1O[11CH3])CC2 [[^11C]6] | Condition not met
2. COc1cc2c(cc1OC)CN(CCCCNC(=O)c1cc([125I])cc(OC)c1OC)CC2 [[^125I]6i] | Condition met
3. COc1cc2c(cc1OC)CN(CCNC(=O)c1cc(C)ccc1O[11CH3])CC2 [[^11C]9] | Condition not met
4. COc1cc2c(cc1OC)CN(CCCCNC(=O)c1cc([76Br])cc(OC)c1OC)CC2 [[^76Br]6] | Condition met
5. COc1cc2c(cc1OC)CN(CCCCNC(=O)c1cc(C)cc(OC)c1O[11CH3])CC2 [[^11C]10] | Condition not met

Turning now to a further compound:
Does the compound COc1cc2c(cc1OC)CN(CCNC(=O)c1cc([125I])ccc1OC)CC2 [[^125I]8i] have recorded % ID per gram fat that is 1 % ID per gram or more?
Condition met

* * *

test system: EMT-6 mammary tumors; assay: Biodistribution in EMT-6 BALB/C mice; type: in vivo; conditions: heart, 30 min
metric name: % ID per gram heart (% ID per gram)
The response must be a number in % ID per gram with no trailing unit.

Request the reported % ID per gram heart associated with COc1cc2c(cc1OC)CN(CCCCNC(=O)c1cc([125I])cc(OC)c1OC)CC2 [[^125I]6i]
1.94

Looking for the measured % ID per gram heart of COc1cc2c(cc1OC)CN(CCNC(=O)c1cc(C)ccc1O[11CH3])CC2 [[^11C]9] , can you help?
0.76

Fill blank: measured % ID per gram heart of the compound COc1cc2c(cc1OC)CN(CCCCNC(=O)c1cc([76Br])cc(OC)c1OC)CC2 [[^76Br]6] is ____.
2.15

Quick one: % ID per gram heart for COc1cc2c(cc1OC)CN(CCNC(=O)c1cc([125I])ccc1OC)CC2 [[^125I]8i] ?
0.94

# lookup: % ID per gram heart of COc1cc2c(cc1OC)CN(CCCCNC(=O)c1cc(Br)cc(OC)c1O[11CH3])CC2 [[^11C]6]
0.68

Suppose we examine the compound COc1cc2c(cc1OC)CN(CCCCNC(=O)c1cc(C)cc(OC)c1O[11CH3])CC2 [[^11C]10] ; what % ID per gram heart value has been reported?
0.95

* * *

test system: EMT-6 mammary tumors; test: Biodistribution in EMT-6 BALB/C mice; assay type: in vivo; conditions: brain, 1 hour
metric name: % ID per gram brain (% ID per gram)
Dear colleague, please return just the value in % ID per gram, with no unit written.

1) COc1cc2c(cc1OC)CN(CCNC(=O)c1cc(C)ccc1O[11CH3])CC2 [[^11C]9] | 0.10
2) COc1cc2c(cc1OC)CN(CCCCNC(=O)c1cc(C)cc(OC)c1O[11CH3])CC2 [[^11C]10] | 0.15

Reported % ID per gram brain for EMT-6 mammary tumors, given COc1cc2c(cc1OC)CN(CCCCNC(=O)c1cc([76Br])cc(OC)c1OC)CC2 [[^76Br]6] ?
0.17

Item COc1cc2c(cc1OC)CN(CCNC(=O)c1cc([125I])ccc1OC)CC2 [[^125I]8i] with EMT-6 mammary tumors - % ID per gram brain?
0.06

Item COc1cc2c(cc1OC)CN(CCCCNC(=O)c1cc([125I])cc(OC)c1OC)CC2 [[^125I]6i] with EMT-6 mammary tumors - % ID per gram brain?
0.15

Field: % ID per gram brain (EMT-6 mammary tumors). Entry: COc1cc2c(cc1OC)CN(CCCCNC(=O)c1cc(Br)cc(OC)c1O[11CH3])CC2 [[^11C]6]
0.03
